The measured values listed here are drawn from patent US10800789B2.

tested on: NS5A chimeric genotype 2a JFH-1 replicon with genotype 2b MD2b-1 strain NS5A gene (M31 present); assay: Replicon assay, genotype 2b NS5A chimera; type: cell-based, HCV; conditions: Hepatitis C virus, read-out: 2b (s) (nM), genotype 2b MD2b-1 NS5A chimeric replicon (M31), stably replicating replicon cells (s)
readout: EC50

COC(=O)NC(C(=O)N1[C@@H](C)CC[C@H]1c1nc2ccc3cc4c(cc3c2[nH]1)OCc1cc(-c2cnc([C@@H]3CC[C@H](C)N3C(=O)[C@@H](NC(=O)OC)[C@@H](C)OC)[nH]2)ccc1-4)C1CCOCC1 (some centres unmarked); 0.072 nM

Find the recorded EC50 belonging to COC(=O)N[C@H](C(=O)N1[C@@H](C)CC[C@H]1c1nc2ccc3cc4c(cc3c2[nH]1)OCc1cc(-c2cnc([C@@H]3C[C@H](F)CN3C(=O)[C@@H](NC(=O)OC)C3CCOCC3)[nH]2)ccc1-4)C(C)C and report it. 1.35 nM
